- System: 186277-243-T-J2-PDC complex spheroid viability
- Assay summary: Anticancer human tumor 186277-243-T-J2-PDC patient-derived colon adenocarcinoma cell line growth inhibition [GQUAD]
- Details: second compound 0.0316 µM; first compound 0.1 µM; hits give low values
Property name: viability, T/C

Sample records with viability, T/C:
Compound: C=CCn1c(=O)c2cnc(Nc3ccc(N4CCN(C)CC4)cc3)nc2n1-c1cccc(C(C)(C)O)n1 + Cc1cnc(CNC(=O)c2c(=O)c3ccc(N4CCCN(C)CC4)nc3n3c2sc2ccccc23)cn1
viability, T/C: 54.3%
--
Compound: COc1cc(C2c3cc4c(cc3C(OC3OC5COC(C)OC5C(O)C3O)C3COC(=O)C23)OCO4)cc(OC)c1O (stereo not given) + CN(C)c1ccc(Nc2c3ccc(NC(=O)CCN4CCCC4)cc3nc3cc(NC(=O)CCN4CCCC4)ccc23)cc1
viability, T/C: 99.4%
--
Compound: Nc1ccn(C2OC(CO)C(O)C2(F)F)c(=O)n1 (stereo not given) + CN(C)c1ccc(Nc2c3ccc(NC(=O)CCN4CCCC4)cc3nc3cc(NC(=O)CCN4CCCC4)ccc23)cc1
viability, T/C: 9.64%
--
Compound: CC1COCCN1c1cc(C2(O)CC3CCC(C2)O3)c2cnn(-c3ccn[nH]3)c2n1 (stereo not given) + Cc1cnc(CNC(=O)c2c(=O)c3ccc(N4CCCN(C)CC4)nc3n3c2sc2ccccc23)cn1
viability, T/C: 13.1%

Turning now to a further compound:
(Q) Find the recorded viability, T/C belonging to COc1ccc([C@@H](O)c2cc(-c3ncnc4cc(N5CCOCC5)ccc34)c(F)cc2Cl)nn1 + Cc1cnc(CNC(=O)c2c(=O)c3ccc(N4CCCN(C)CC4)nc3n3c2sc2ccccc23)cn1 and report it.
(A) 100%

====

- Tested on: 186277-243-T-J2-PDC complex spheroid viability
- Assay summary: Anticancer human tumor 186277-243-T-J2-PDC cell line growth inhibition [GQUAD];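 note: spheroids exposed to drugs for 7 days; 100% = DMSO vehicle control viability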
- Details: second compound 3.16 µM; first compound 0.316 µM; hits give low values
Property name: viability, T/C (%)
Express the result in % but write the number alone.

Compound: Nc1ccn(C2OC(CO)C(O)C2(F)F)c(=O)n1 (stereo unspecified) + Cc1[nH]c2ccc(F)cc2c1-c1nc2c3cccnc3c3ncccc3c2[nH]1
viability, T/C (%): 11.9
//
Compound: CCc1c2c(nc3ccc(O)cc13)-c1cc3c(c(=O)n1C2)COC(=O)[C@]3(O)CC + Cc1[nH]c2ccc(F)cc2c1-c1nc2c3cccnc3c3ncccc3c2[nH]1
viability, T/C (%): 18.7
//
Compound: Cc1cccc(N(C)C(=O)C2C(O)CCN2c2nc(C)cc(C(F)(F)F)c2C#N)c1 (stereo unspecified) + Cc1[nH]c2ccc(F)cc2c1-c1nc2c3cccnc3c3ncccc3c2[nH]1
viability, T/C (%): 98.2
//
Compound: CCc1c2c(nc3ccc(O)cc13)-c1cc3c(c(=O)n1C2)COC(=O)[C@]3(O)CC + CN(C)c1ccc(Nc2c3ccc(NC(=O)CCN4CCCC4)cc3nc3cc(NC(=O)CCN4CCCC4)ccc23)cc1
viability, T/C (%): 8.68
//
Compound: C#Cc1c(F)ccc2cc(O)cc(-c3ncc4c(N5CC6CCC(C5)N6)nc(OCC56CCCN5CC(F)C6)nc4c3F)c12 (stereo unspecified) + Cc1cnc(CNC(=O)c2c(=O)c3ccc(N4CCCN(C)CC4)nc3n3c2sc2ccccc23)cn1
viability, T/C (%): 5.45

Could you now look at the following compound, please?
(Q) Find viability, T/C (186277-243-T-J2-PDC complex spheroid viability) for the entry C#Cc1c(F)ccc2cc(O)cc(-c3ncc4c(N5CC6CCC(C5)N6)nc(OCC56CCCN5CC(F)C6)nc4c3F)c12 (stereo unspecified) + Cc1[nH]c2ccc(F)cc2c1-c1nc2c3cccnc3c3ncccc3c2[nH]1
(A) 19.2
